Reported αs1-I CN, 24 hours, 11° C. values are given for each entry in this list.
# Target System: T1, alpha-s1 casein from Bos taurus
# T1 chain: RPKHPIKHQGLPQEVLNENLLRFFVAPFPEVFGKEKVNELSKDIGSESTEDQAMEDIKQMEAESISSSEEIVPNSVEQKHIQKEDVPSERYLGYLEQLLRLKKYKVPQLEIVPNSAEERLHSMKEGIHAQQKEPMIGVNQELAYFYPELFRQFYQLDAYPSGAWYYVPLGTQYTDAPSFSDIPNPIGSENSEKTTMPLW
Return type: number; implicit unit Volume.

Query: Look up αs1-I CN, 24 hours, 11° C. of camel chymosin variant #165 (L295W) (protein) GKVAREPLTSYLDSQYFGKIYIGTPPQEFTVVFDTGSSDLWVPSIYCKSNVCKNHHRFDPRKSSTFRNLGKPLSIHYGTGSMEGFLGYDTVTVSNIVDPNQTVGLSTEQPGEVFTYSEFDGILGLAYPSLASEYSVPVFDNMMDRHLVARDLFSVYMDRNGQGSMLTLGAIDPSYYTGSLHWVPVTLQQYWQFTVDSVTINGVAVACVGGCQAILDTGTSVLFGPSSDILKIQMAIGATENRYGEFDVNCGNLRSMPTVVFEINGRDYPLSPSAYTSKDQGFCTSGFQGDNNSEWWILGDVFIREYYSVFDRANNRVGLAKAI and report it.
Response: 3.78e+07

Alright, here's another protein for you.
Query: Look up αs1-I CN, 24 hours, 11° C. of camel chymosin variant #148 (Q288N) (protein) GKVAREPLTSYLDSQYFGKIYIGTPPQEFTVVFDTGSSDLWVPSIYCKSNVCKNHHRFDPRKSSTFRNLGKPLSIHYGTGSMEGFLGYDTVTVSNIVDPNQTVGLSTEQPGEVFTYSEFDGILGLAYPSLASEYSVPVFDNMMDRHLVARDLFSVYMDRNGQGSMLTLGAIDPSYYTGSLHWVPVTLQQYWQFTVDSVTINGVAVACVGGCQAILDTGTSVLFGPSSDILKIQMAIGATENRYGEFDVNCGNLRSMPTVVFEINGRDYPLSPSAYTSKDQGFCTSGFNGDNNSELWILGDVFIREYYSVFDRANNRVGLAKAI and report it.
Response: 2.62e+07
